TESTED SYSTEM: DNA topoisomerase 1 (Homo sapiens) (UniProt P11387)
Sequence (P11387 whole entry): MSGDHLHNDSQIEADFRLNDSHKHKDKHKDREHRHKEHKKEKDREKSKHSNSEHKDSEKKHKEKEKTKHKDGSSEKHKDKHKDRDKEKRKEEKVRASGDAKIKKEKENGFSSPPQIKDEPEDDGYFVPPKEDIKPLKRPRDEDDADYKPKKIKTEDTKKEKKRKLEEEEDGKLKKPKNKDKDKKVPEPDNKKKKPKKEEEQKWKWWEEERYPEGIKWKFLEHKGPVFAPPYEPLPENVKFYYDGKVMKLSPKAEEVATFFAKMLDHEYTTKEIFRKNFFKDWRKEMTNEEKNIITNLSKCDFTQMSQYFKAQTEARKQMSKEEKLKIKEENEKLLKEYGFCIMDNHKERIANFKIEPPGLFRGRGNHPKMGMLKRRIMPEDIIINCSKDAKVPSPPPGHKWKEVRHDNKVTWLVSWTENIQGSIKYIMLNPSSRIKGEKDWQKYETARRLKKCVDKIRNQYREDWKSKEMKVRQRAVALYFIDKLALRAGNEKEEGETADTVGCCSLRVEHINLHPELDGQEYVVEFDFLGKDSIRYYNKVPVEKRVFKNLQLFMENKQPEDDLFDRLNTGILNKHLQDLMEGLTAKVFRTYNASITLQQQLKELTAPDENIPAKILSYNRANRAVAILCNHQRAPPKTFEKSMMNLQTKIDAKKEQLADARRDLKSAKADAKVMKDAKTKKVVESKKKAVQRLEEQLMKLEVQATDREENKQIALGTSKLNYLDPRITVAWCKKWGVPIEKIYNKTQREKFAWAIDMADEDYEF
TEST NAME: Inhibition of recombinant TOP1 (unknown origin) using 3'-[32P]-labeled 117 bp DNA oligonucleotide assessed as […] TOP1-mediated DNA cleavage incubated for 20 mins by PAGE analysis relative to 1 uM CPT
Parameter inhibition: see the listing below.

INSERT INTO measurements (cpd_smiles, measured_result) VALUES
  ('COc1cc2c(=O)n(CCN)c3c4cc5c(cc4ccc3c2cc1OC)OCO5', '50 to 75%'),
  ('COc1cc2c(=O)n(CCN(C)S(=O)(=O)N3CCOCC3)c3c4cc5c(cc4ccc3c2cc1OC)OCO5', '20 to 50%'),
  ('COc1cc2c(=O)n(CCNP(=O)(OC)OC)c3c4cc5c(cc4ccc3c2cc1OC)OCO5', '0 to 50%'),
  ('COc1cc2c(=O)n(CCNS(=O)(=O)N3CCCC3)c3c4cc5c(cc4ccc3c2cc1OC)OCO5', '0 to 50%'),
  ('COc1cc2c(=O)n(CCN(C)P(=O)(OC)OC)c3c4cc5c(cc4ccc3c2cc1OC)OCO5', '50 to 75%');

# context switch: different compound, same inhibition
Give the reported inhibition for this compound. `COc1cc2c(=O)n(CCN(C)S(=O)(=O)C(F)(F)F)c3c4cc5c(cc4ccc3c2cc1OC)OCO5` 0 to 50%

----------
TESTED SYSTEM: DNA topoisomerase 1 (Homo sapiens) (UniProt P11387)
TEST NAME: Inhibition of recombinant TOP1 (unknown origin) using 3'-[32P]-labeled 117 bp DNA oligonucleotide assessed as […] TOP1-mediated DNA cleavage incubated for 20 mins by PAGE analysis relative to 1 uM CPT
REPORTED METRIC: inhibition

INSERT INTO results (cpd_smiles, measured_result) VALUES
  ('COc1cc2c(=O)n(CCN(C)P3(=O)OCCO3)c3c4cc5c(cc4ccc3c2cc1OC)OCO5', '50 to 75%'),
  ('COc1cc2c(=O)n(CCNS(=O)(=O)C3CC3)c3c4cc5c(cc4ccc3c2cc1OC)OCO5', '50 to 75%'),
  ('COc1cc2c(=O)n(CCNS(=O)(=O)N3CCOCC3)c3c4cc5c(cc4ccc3c2cc1OC)OCO5', '50 to 75%'),
  ('COc1cc2c(=O)n(CCN(C)S(=O)(=O)N3CCCC3)c3c4cc5c(cc4ccc3c2cc1OC)OCO5', '20 to 50%'),
  ('COc1cc2c(=O)n(CCN(C)S(=O)(=O)C3CC3)c3c4cc5c(cc4ccc3c2cc1OC)OCO5', '20 to 50%');

Determine from records and report inhibition for `COc1cc2c(=O)n(CCNS(=O)(=O)N(C)C)c3c4cc5c(cc4ccc3c2cc1OC)OCO5` 20 to 50%

Using the record for `COc1cc2c(=O)n(CCN(C)S(=O)(=O)N(C)C)c3c4cc5c(cc4ccc3c2cc1OC)OCO5` , state its measured inhibition. 20 to 50%

Identify measured inhibition associated with `CNCCn1c(=O)c2cc(OC)c(OC)cc2c2ccc3cc4c(cc3c21)OCO4` 75 to 95%

Answer with the recorded inhibition of `COc1cc2c(=O)n(CCNC(=O)C3CC3)c3c4cc5c(cc4ccc3c2cc1OC)OCO5` only. 20 to 50%
